- TESTED ON: human AT1R (angiotensin II type 1 receptor) (Homo sapiens)
- Sequence (P30556 whole entry): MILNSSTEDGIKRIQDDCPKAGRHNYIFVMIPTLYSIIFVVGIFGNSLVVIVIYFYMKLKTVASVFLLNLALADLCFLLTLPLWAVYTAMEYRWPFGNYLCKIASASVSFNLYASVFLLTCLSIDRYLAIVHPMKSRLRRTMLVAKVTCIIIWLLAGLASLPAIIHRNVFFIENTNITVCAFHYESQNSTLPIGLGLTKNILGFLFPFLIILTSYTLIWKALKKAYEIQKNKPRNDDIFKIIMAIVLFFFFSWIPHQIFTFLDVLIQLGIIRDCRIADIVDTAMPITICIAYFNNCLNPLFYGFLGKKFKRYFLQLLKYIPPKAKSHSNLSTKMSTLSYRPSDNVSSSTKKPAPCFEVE
- EXPERIMENT SUMMARY: inhibition of AngII-induced G protein activation, cell impedance
- Type: cell-based
pIC50: −log10 of the molar value.
MEASURE: pIC50

CCOc1nc2cccc(C(=O)O)c2n1Cc1ccc(-c2ccccc2-c2noc(=O)[nH]2)cc1 = 8.80

[A] CCCCc1ncc(/C=C(\Cc2cccs2)C(=O)O)n1Cc1ccc(C(=O)O)cc1
[B] CCOc1nc2cccc(C(=O)O)c2n1Cc1ccc(-c2ccccc2-c2nnn[nH]2)cc1
[C] CCCc1nc(C(C)(C)O)c(C(=O)O)n1Cc1ccc(-c2ccccc2-c2nnn[nH]2)cc1
Form: Sort by [pIC50] Order [ ascending ] Reply format: the labels, ordered as requested.
C, A, B
